Please go through the items and note down their viability, T/C.
System: 953936-095-R-J2-PDC spheroids with HUVEC/MSC, viability;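 also: spheroids exposed to compounds for seven days before read-out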
test: Anticancer human tumor 953936-095-R-J2-PDC patient-derived cervical squamous cell carcinoma cell line growth inhibition [PI3K]
conditionSet: second compound 0.1 µM; first compound 0.1 µM; stronger effect = lower value
Numbers only here, please. The scale is %.

input: Param item = CC1(C)CCC(Nc2ncc(C(F)(F)F)c(-c3c[nH]c4c(P(C)(C)=O)c(C#N)ccc34)n2)CN1 (stereo unspecified) + CC(Nc1ccc2c(c1)OCCn1cc(N3C(=O)OCC3C(F)F)nc1-2)C(N)=O ; retrieve measured viability, T/C.
output: 32.2

input: Moving on to CC(Cn1ccc(-c2ccc(C#N)c(Cl)c2)n1)NC(=O)c1cc(C(C)O)[nH]n1 (stereo unspecified) + Cc1nc(NC(=O)N2CCCC2C(N)=O)sc1-c1ccnc(C(C)(C)C(F)(F)F)c1
output: 77.9

input: Moving on to Cn1ncnc1[C@H]1c2n[nH]c(=O)c3cc(F)cc(c23)N[C@@H]1c1ccc(F)cc1 + CC(Nc1ncnc2nc[nH]c12)c1cc2cccc(Cl)c2c(=O)n1-c1ccccc1
output: 90.1

input: Moving on to CC(=O)c1c(C)c2cnc(Nc3ccc(N4CCNCC4)cn3)nc2n(C2CCCC2)c1=O + Cc1nc(NC(=O)N2CCCC2C(N)=O)sc1-c1ccnc(C(C)(C)C(F)(F)F)c1
output: 75.9

input: Moving on to CCCS(=O)(=O)Nc1ccc(F)c(C(=O)c2c[nH]c3ncc(-c4ccc(Cl)cc4)cc23)c1F + CC(Nc1ccc2c(c1)OCCn1cc(N3C(=O)OCC3C(F)F)nc1-2)C(N)=O
output: 58.7

input: Moving on to CC(C)n1nc(-c2ccc3oc(N)nc3c2)c2c(N)ncnc21 + CC(Nc1ncnc2nc[nH]c12)c1cc2cccc(Cl)c2c(=O)n1-c1ccccc1
output: 16.5

All figures here come from PubChem BioAssay AID1963971.
